target: NAMPT (human, recombinant, C-terminally His-tagged) (Homo sapiens); assay: Time-Resolved Fluorescence Resonance Energy Transfer (TR-FRET) Binding Assay of NAMPT; details: absence of substrates; 6.8 nM NAMPT, 200 nM probe, equilibrated 3 hours
Sequence (P43490 whole entry): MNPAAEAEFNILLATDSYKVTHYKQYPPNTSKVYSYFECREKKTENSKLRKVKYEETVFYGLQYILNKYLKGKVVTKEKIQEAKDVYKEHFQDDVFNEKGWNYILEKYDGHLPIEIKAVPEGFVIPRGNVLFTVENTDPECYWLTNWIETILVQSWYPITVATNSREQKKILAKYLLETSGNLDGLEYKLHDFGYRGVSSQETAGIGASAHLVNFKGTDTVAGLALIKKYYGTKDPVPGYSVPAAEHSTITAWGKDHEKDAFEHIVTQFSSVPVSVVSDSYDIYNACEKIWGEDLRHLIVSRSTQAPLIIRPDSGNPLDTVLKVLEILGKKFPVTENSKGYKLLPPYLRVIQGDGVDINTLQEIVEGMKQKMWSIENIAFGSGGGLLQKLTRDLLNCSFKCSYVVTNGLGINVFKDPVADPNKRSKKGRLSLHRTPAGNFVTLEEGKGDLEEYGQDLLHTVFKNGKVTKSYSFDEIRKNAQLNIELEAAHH
# maps each entry to its pIC50
// returns pIC50 (minus log10 of molar concentration), number only

See these solved cases before continuing.
Task: Give its pIC50 value. Item: CN(Cc1ccc(-c2cccnc2)cc1)c1ncc(C(=O)NCCCn2ccnc2)s1
Result: 5.12

Task: # iterate: CCN(CC)C(=O)CN(Cc1ccc(F)cc1)c1ncc(C(=O)NCCCn2ccnc2)s1
Result: 6.00

Task: Another compound to check: COCCC(=O)N(CCc1ccccn1)c1ncc(C(=O)NCCCn2ccnc2)s1
Result: 5.25

Task: Please answer likewise for COCCC(=O)N(Cc1ccccc1C)c1ncc(C(=O)NCCCn2ccnc2)s1
Result: 5.34

Task: Record: C=CCN1CCN(CC(=O)N(Cc2ccc(F)cc2)c2ncc(C(=O)NCCCn3ccnc3)s2)CC1
Result: 5.32

Task: Also, CC(C)OCCNC(=O)N(Cc1ccc(F)cc1)c1ncc(C(=O)NCCCn2ccnc2)s1 please.
Result: 5.65

Now for a further compound.
Task: What does the record list as pIC50 for C=CCN(CC=C)CCN(C(=O)CCOC)c1ncc(C(=O)NCCCn2ccnc2)s1 ?
Result: 5.33

---

target: NAMPT (human, recombinant, C-terminally His-tagged) (Homo sapiens); assay: Time-Resolved Fluorescence Resonance Energy Transfer (TR-FRET) Binding Assay of NAMPT; details: absence of substrates; 6.8 nM NAMPT, 200 nM probe, equilibrated 3 hours
Item-by-item account of IC50

Task: Requested field: IC50. Item: CCN(CC)CCNC(=O)N(Cc1ccc(C#N)cc1)c1ncc(C(=O)NCCCn2ccnc2)s1
Result: > 10 µM

Task: Please answer likewise for O=C(NCCCn1ccnc1)c1cnc(N(Cc2ccc(F)cc2)C(=O)NCC2OCCO2)s1
Result: > 10 µM

Task: O=C(NCCCn1ccnc1)c1cnc(N(Cc2ccc(F)cc2)C(=O)CC2CCOCC2)s1 ?
Result: 1.22 µM

New cases:
Task: Reported IC50 for O=C(NCCCn1ccnc1)c1cnc(N(Cc2ccc(Cl)cn2)C(=O)C2CCOC2)s1 (stereo not drawn) : what is it?
Result: 5.63 µM

Task: Moving on to the next molecule: CCOC(=O)C(C)(C)CNC(=O)N(Cc1ccc(C#N)cc1)c1ncc(C(=O)NCCCn2ccnc2)s1
Result: 6.8 µM

Task: Then COCCC(=O)N(CCCNC(C)=O)c1ncc(C(=O)NCCCn2ccnc2)s1 ?
Result: > 10 µM
